Record form. Attribute: pKd. Fill in for each entry.
# Study Target: T1, human PRLR (Biacore antigen) (human, UniProt P16471 25-234, limits assumed)
# T1 construct: The construct injected over captured antibody is not described (a soluble form is likely); also called huPRLR
# T1 sequence: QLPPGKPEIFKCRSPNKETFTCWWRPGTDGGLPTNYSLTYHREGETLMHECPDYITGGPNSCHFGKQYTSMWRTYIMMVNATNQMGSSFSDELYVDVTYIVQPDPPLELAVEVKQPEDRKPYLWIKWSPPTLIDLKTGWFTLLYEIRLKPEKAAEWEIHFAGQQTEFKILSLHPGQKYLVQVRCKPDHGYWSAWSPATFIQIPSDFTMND
# Method Notes: SPR Biacore
Keep in mind that pKd stands for -log10 of concentration in molar terms.

Determine its reported pKd: Ab16 (antibody, human IgG1, kappa, V domains shown, humanized from Ab6; G1; also called Ab1 HC.1 and Ab1 LC.2) VH: EVQLVQSGAEVKKPGSSVKVSCKASGYTFTTYWMHWVRQAPGQGLEWMGEIDPSDSYSNYNQKFKDRVTITADKSTSTAYMELSSLRSEDTAVYYCARNGGLGPAWFSYWGQGTLVTVSS VL: EIVMTQSPATLSVSPGERATLSCKASQYVGTAVAWYQQKPGQAPRLLIYSASNRYTGIPARFSGSGSGTEFTLTISSLQSEDFAVYYCQQYSSYPWTFGGGTKVEIKR
8.39

Read off the recorded pKd for Ab9 (antibody, V domains shown, murine monoclonal, isotype G2b; also called murine Ab9) VH: EVQLQQSGPELVRPGASVKISCKASGYSFTDYNMHWVKQSHGKSLEWIGYIYPYNGGAGYNQKFKSKATMNVGISSSTAYMELRSLTSEDSAVYYCARGDGNYVGDMDYWGQGTSVTVSS VL: DIQMTQSPASLSASVGETVTITCRASENIYSYLAWYQQKQGKSPQLLVYNAKTLAEGVPSRFSGSGSGTQFSLKINSLQPEDFGSYYCQHHSGTPFTFGSGTKLEIK
9.65
